Cited source for all entries: paper PMC5128878

biological target: α3β4 nAChR (Rattus norvegicus, UniProt P04757+P12392); construct: expressed in transfected cells; host or cells: Xenopus laevis oocytes injected with cRNA; test: cell-based; conditions: IC50 (95% CI), Peak, α3β4, VH −80 mV, peak current, ACh 100 μM
attribute_measured: IC50 (nM)

- CCCC(=O)N[C@@H](Cc1ccc(O)cc1)C(=O)NCCCCCCCCCCCCN [PhTX-12]: 2620
- CCCC(=O)N[C@@H](Cc1ccc(O)cc1)C(=O)NCCCNCCCCNCCCN [PhTX-343]: 80

----------
biological target: α4β4 nAChR (Rattus norvegicus, UniProt P09483+P12392); construct: expressed in transfected cells; host or cells: Xenopus laevis oocytes injected with cRNA; test: cell-based; type: cell-based; conditions: IC50 (95% CI), Peak, α4β4, VH −60 mV, peak current, ACh 10 μM
Sequence (P09483 31-630): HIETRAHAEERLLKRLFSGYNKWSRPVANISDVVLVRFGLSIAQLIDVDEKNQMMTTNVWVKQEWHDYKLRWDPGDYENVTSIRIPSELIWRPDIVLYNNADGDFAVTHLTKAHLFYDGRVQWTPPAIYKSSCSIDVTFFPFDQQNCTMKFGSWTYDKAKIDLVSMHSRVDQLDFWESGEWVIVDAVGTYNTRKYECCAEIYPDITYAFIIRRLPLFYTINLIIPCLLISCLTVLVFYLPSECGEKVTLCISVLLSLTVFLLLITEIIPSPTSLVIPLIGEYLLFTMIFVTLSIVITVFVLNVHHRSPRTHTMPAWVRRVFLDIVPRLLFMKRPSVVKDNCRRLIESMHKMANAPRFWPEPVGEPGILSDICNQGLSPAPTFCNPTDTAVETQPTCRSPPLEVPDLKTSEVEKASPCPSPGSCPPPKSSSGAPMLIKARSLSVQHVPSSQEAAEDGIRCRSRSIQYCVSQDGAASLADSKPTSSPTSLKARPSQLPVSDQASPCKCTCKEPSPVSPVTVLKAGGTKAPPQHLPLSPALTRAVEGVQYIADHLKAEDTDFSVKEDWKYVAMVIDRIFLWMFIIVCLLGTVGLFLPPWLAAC
Sequence (P12392 21-495): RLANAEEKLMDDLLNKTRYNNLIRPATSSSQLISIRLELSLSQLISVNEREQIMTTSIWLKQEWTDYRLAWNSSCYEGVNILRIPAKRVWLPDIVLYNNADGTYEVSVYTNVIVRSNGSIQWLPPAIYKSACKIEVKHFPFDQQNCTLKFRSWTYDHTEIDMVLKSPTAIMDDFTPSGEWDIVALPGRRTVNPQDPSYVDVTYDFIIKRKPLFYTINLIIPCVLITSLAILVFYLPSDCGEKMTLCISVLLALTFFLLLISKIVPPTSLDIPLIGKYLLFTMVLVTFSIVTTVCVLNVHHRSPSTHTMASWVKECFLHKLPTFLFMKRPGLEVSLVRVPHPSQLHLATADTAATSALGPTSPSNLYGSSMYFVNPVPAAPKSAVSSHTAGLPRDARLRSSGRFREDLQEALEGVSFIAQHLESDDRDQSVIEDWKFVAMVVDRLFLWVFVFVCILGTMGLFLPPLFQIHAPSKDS
pIC50: −log10 of the molar value.
attribute_measured: pIC50

* CCCC(=O)N[C@@H](Cc1ccc(O)cc1)C(=O)NCCCNCCCCNCCCN | 6.01
* CCCC(=O)N[C@@H](Cc1ccc(O)cc1)C(=O)NCCCCCCCCCCCCN | 5.92

----------
target: α3β2 nAChR (Rattus norvegicus, UniProt P04757+P12390); assay: Two-electrode voltage clamp of ACh currents, α3β2 nAChRs expressed in Xenopus oocytes; conditions: IC50 (95% CI), Late, α3β2, VH −80 mV, late current (1 min), ACh 30 μM
Sequence (P04757 26-499): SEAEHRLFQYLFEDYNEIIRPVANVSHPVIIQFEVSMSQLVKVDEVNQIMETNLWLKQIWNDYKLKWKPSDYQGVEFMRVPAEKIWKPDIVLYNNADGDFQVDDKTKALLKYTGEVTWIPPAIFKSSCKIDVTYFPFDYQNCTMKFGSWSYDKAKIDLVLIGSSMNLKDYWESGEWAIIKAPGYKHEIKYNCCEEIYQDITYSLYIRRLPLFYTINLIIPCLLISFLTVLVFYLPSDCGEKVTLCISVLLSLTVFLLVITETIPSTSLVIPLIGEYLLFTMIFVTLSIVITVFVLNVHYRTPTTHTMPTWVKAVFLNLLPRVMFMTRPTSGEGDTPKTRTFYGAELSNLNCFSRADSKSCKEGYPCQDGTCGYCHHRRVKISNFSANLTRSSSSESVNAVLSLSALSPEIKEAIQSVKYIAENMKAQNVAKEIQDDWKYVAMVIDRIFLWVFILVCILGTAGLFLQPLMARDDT
Sequence (P12390 25-500): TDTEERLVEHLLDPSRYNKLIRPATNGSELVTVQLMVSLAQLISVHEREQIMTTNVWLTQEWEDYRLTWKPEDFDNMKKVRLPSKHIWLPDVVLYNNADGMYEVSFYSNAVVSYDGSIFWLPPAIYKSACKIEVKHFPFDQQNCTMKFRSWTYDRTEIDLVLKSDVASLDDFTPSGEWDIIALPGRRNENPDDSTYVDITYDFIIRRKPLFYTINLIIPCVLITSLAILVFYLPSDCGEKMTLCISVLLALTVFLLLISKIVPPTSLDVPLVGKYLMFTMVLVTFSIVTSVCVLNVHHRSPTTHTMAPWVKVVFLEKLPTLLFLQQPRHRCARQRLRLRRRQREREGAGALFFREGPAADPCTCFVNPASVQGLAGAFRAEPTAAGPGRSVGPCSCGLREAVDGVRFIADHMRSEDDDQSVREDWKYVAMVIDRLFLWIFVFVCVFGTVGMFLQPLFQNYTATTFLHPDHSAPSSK
pIC50: −log10 of the molar value.
attribute_measured: pIC50

• CCCC(=O)N[C@@H](Cc1ccc(O)cc1)C(=O)NCCCNCCCCNCCCN [PhTX-343] = 5.86
• CCCC(=O)N[C@@H](Cc1ccc(O)cc1)C(=O)NCCCCCCCCCCCCN [PhTX-12] = 5.59

----------
biological target: α1β1γδ nAChR (Mus musculus, UniProt P02716+P04756+P04760+P09690); construct: expressed in transfected cells; host or cells: Xenopus laevis oocytes injected with cRNA; assay: cell-based; format: cell-based; settings: IC50 (95% CI), Peak, α1β1γδ, VH −80 mV, peak current, ACh 10 μM
Sequence (P04756 21-457): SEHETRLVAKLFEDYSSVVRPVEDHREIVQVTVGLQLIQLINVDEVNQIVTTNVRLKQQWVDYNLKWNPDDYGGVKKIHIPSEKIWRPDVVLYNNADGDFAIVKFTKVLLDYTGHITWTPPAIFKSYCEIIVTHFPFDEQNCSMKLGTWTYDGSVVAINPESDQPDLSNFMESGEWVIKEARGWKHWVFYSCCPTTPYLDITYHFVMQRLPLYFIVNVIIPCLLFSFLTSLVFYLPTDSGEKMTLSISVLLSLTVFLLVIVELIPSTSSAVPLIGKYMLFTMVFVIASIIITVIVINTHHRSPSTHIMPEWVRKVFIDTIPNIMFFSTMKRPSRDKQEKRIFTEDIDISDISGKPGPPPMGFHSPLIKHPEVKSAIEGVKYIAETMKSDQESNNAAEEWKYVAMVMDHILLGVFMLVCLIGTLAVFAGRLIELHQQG
Sequence (P09690 24-501): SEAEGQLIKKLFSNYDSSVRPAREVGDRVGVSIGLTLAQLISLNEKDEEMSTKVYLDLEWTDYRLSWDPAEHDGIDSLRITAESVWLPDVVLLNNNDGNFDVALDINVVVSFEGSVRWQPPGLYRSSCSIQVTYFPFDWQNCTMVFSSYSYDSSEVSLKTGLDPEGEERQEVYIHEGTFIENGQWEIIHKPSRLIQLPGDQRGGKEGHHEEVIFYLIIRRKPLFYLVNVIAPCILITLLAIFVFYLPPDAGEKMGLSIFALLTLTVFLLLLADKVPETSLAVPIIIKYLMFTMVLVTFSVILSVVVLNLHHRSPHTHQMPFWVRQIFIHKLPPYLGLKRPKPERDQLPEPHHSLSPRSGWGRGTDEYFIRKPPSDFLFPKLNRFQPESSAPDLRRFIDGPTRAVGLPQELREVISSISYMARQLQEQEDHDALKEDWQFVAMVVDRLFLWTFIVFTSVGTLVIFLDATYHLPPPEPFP
Sequence (P04760 23-519): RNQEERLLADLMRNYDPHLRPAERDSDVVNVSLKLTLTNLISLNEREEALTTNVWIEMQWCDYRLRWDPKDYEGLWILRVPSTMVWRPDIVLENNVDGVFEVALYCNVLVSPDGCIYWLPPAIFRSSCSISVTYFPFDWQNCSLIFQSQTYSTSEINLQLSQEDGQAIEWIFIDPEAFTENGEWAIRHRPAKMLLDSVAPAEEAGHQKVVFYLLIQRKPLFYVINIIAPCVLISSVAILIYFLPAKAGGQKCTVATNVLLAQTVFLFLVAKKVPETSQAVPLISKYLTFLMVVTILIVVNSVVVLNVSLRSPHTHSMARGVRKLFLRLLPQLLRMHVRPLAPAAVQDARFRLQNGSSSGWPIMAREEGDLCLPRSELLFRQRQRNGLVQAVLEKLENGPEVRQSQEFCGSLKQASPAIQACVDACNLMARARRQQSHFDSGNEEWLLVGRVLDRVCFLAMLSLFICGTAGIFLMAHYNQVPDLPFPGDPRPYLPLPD
Sequence (P02716 25-520): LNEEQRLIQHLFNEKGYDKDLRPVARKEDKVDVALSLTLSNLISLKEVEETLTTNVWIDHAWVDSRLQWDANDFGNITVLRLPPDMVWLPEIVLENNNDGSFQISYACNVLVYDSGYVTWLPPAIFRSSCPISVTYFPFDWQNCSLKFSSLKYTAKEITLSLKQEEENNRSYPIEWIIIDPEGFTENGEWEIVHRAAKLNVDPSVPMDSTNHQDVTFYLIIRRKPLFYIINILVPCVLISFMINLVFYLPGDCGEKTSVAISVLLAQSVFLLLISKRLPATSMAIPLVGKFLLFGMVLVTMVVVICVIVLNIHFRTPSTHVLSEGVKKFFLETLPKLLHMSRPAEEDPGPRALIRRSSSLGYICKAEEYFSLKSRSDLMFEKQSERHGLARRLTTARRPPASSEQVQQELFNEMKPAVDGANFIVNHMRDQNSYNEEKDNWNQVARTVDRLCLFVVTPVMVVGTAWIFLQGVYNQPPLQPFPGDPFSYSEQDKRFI
Measured IC50 values are reported for all entries that follow.
attribute_measured: IC50 (µM)

- CCCC(=O)N[C@@H](Cc1ccc(O)cc1)C(=O)NCCCNCCCCNCCCN: 15.1
- CCCC(=O)N[C@@H](Cc1ccc(O)cc1)C(=O)NCCCCCCCCCCCCN: 6.18

----------
The entries below come with measured IC50 values attached.
biological target: α3β4 nAChR (Rattus norvegicus, UniProt P04757+P12392); construct: expressed in transfected cells; host or cells: Xenopus laevis oocytes injected with cRNA; assay: cell-based; details: IC50 (95% CI), Peak, α3β4, VH −60 mV, peak current, ACh 100 μM
attribute_measured: IC50 (nM)

- CCCC(=O)N[C@@H](Cc1ccc(O)cc1)C(=O)NCCCNCCCCNCCCN: 290
- CCCC(=O)N[C@@H](Cc1ccc(O)cc1)C(=O)NCCCCCCCCCCCCN: 3090

----------
molecular target: α7 nAChR (Homo sapiens); construct: expressed in transfected cells; host or cells: Xenopus laevis oocytes injected with cRNA; assay: Two-electrode voltage clamp of ACh currents, α7 nAChRs (with RIC-3) expressed in Xenopus oocytes; assay type: cell-based; settings: IC50 (95% CI), Late, α7, VH −100 mV, based on the area under the current trace (no stable late current), ACh 100 μM
Sequence (P36544 23-502): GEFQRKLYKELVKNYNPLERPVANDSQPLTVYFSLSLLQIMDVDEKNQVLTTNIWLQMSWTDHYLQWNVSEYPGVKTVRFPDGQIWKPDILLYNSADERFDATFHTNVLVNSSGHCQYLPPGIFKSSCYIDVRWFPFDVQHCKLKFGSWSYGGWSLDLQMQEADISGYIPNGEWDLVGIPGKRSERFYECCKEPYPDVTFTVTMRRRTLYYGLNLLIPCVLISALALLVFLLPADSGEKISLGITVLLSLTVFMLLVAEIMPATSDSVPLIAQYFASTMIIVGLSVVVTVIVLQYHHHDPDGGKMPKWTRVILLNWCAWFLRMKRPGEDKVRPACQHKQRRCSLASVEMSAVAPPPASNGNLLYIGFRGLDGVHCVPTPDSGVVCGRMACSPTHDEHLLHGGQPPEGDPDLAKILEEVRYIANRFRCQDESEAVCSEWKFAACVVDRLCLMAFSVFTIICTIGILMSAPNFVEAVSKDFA
pIC50: −log10 of the molar value.
attribute_measured: pIC50

- CCCC(=O)N[C@@H](Cc1ccc(O)cc1)C(=O)NCCCCCCCCCCCCN [PhTX-12]: 5.30
- CCCC(=O)N[C@@H](Cc1ccc(O)cc1)C(=O)NCCCNCCCCNCCCN [PhTX-343]: 5.17

----------
Below is a list of entries, each paired with its recorded IC50 value.
target: α4β2(V253F) nAChR (Rattus norvegicus, UniProt P09483+P12390, V277F); construct: expressed in transfected cells; host or cells: Xenopus laevis oocytes injected with cRNA; experiment: Two-electrode voltage clamp of ACh currents, α4β2(V253F) nAChRs expressed in Xenopus oocytes; format: cell-based; conditions: α4β2(V253F), VH −60 mV, late current (1 min), ACh 10 μM; read-out: IC50 (95% CI), Late
Sequence (P09483 31-630, stated change not applied): as the sequence (P09483 31-630) above
Sequence (P12390 25-500 V277F): as the sequence (P12390 25-500) above, with V253F counted along it
attribute_measured: IC50 (nM)

- CCCC(=O)N[C@@H](Cc1ccc(O)cc1)C(=O)NCCCNCCCCNCCCN: 63
- CCCC(=O)N[C@@H](Cc1ccc(O)cc1)C(=O)NCCCCCCCCCCCCN: 410

----------
target: α7 nAChR (Homo sapiens); construct: expressed in transfected cells; host or cells: Xenopus laevis oocytes injected with cRNA; experiment: Two-electrode voltage clamp of ACh currents, α7 nAChRs (with RIC-3) expressed in Xenopus oocytes; type: cell-based; details: IC50 (95% CI), Peak, α7, VH −80 mV, peak current, ACh 100 μM
Documented IC50 across a set of compounds
attribute_measured: IC50 (µM)

* CCCC(=O)N[C@@H](Cc1ccc(O)cc1)C(=O)NCCCCCCCCCCCCN [PhTX-12] | 11.1
* CCCC(=O)N[C@@H](Cc1ccc(O)cc1)C(=O)NCCCNCCCCNCCCN [PhTX-343] | 6.48

----------
molecular target: α4β4 nAChR (Rattus norvegicus, UniProt P09483+P12392); construct: expressed in transfected cells; host or cells: Xenopus laevis oocytes injected with cRNA; test: cell-based; type: cell-based; conditions: IC50 (95% CI), Late, α4β4, VH −80 mV, late current (1 min), ACh 10 μM
pIC50: −log10 of the molar value.
attribute_measured: pIC50

* CCCC(=O)N[C@@H](Cc1ccc(O)cc1)C(=O)NCCCCCCCCCCCCN | 6.54
* CCCC(=O)N[C@@H](Cc1ccc(O)cc1)C(=O)NCCCNCCCCNCCCN | 7.19

----------
target: α4β2 nAChR (Rattus norvegicus, UniProt P09483+P12390); construct: expressed in transfected cells; host or cells: Xenopus laevis oocytes injected with cRNA; assay: cell-based; assay type: cell-based; conditions: IC50 (95% CI), Late, α4β2, VH −60 mV, late current (1 min), ACh 10 μM
Entries and their IC50 values follow.
attribute_measured: IC50 (µM)

- CCCC(=O)N[C@@H](Cc1ccc(O)cc1)C(=O)NCCCNCCCCNCCCN: 0.46
- CCCC(=O)N[C@@H](Cc1ccc(O)cc1)C(=O)NCCCCCCCCCCCCN: 0.23

----------
pIC50 for assorted compounds
biological target: α3β2 nAChR (Rattus norvegicus, UniProt P04757+P12390); assay: Two-electrode voltage clamp of ACh currents, α3β2 nAChRs expressed in Xenopus oocytes; conditions: IC50 (95% CI), Late, α3β2, VH −60 mV, late current (1 min), ACh 30 μM
pIC50: −log10 of the molar value.
attribute_measured: pIC50

* CCCC(=O)N[C@@H](Cc1ccc(O)cc1)C(=O)NCCCCCCCCCCCCN | 5.49
* CCCC(=O)N[C@@H](Cc1ccc(O)cc1)C(=O)NCCCNCCCCNCCCN | 5.80

----------
molecular target: α1β1γδ nAChR (Mus musculus, UniProt P02716+P04756+P04760+P09690); construct: expressed in transfected cells; host or cells: Xenopus laevis oocytes injected with cRNA; assay: cell-based; type: cell-based; conditions: IC50 (95% CI), Late, α1β1γδ, VH −80 mV, late current (1 min), ACh 10 μM
attribute_measured: IC50 (nM)

* CCCC(=O)N[C@@H](Cc1ccc(O)cc1)C(=O)NCCCCCCCCCCCCN | 100

----------
Measured pIC50 accompanies every entry in the list below.
target: α4β2 nAChR (Rattus norvegicus, UniProt P09483+P12390); construct: expressed in transfected cells; host or cells: Xenopus laevis oocytes injected with cRNA; assay: cell-based; type: cell-based; settings: IC50 (95% CI), Late, α4β2, VH −100 mV, late current (1 min), ACh 10 μM
pIC50: −log10 of the molar value.
attribute_measured: pIC50

- CCCC(=O)N[C@@H](Cc1ccc(O)cc1)C(=O)NCCCCCCCCCCCCN: 7.36
- CCCC(=O)N[C@@H](Cc1ccc(O)cc1)C(=O)NCCCNCCCCNCCCN: 7.10

----------
Reported pIC50 values are given for each entry in this list.
target: α3β4 nAChR (Rattus norvegicus, UniProt P04757+P12392); construct: expressed in transfected cells; host or cells: Xenopus laevis oocytes injected with cRNA; assay: cell-based; settings: IC50 (95% CI), Late, α3β4, VH −60 mV, late current (1 min), ACh 100 μM
pIC50: −log10 of the molar value.
attribute_measured: pIC50

- CCCC(=O)N[C@@H](Cc1ccc(O)cc1)C(=O)NCCCCCCCCCCCCN: 6.96
- CCCC(=O)N[C@@H](Cc1ccc(O)cc1)C(=O)NCCCNCCCCNCCCN: 7.06
